- EXPERIMENTAL_TARGET: Sialic acid-binding Ig-like lectin 9 (Homo sapiens)
- ASSAY_DETAILS: Hs-Siglec9 ALPHAscreen SOP 20170721
- Parameters: scale not given: direction of the effect not stated beside the values
- CONDITION_NOTES: 10 µM
Could you please report measured Percent Effect for the items listed next?
Entry rule: numbers only, all in %.

Lab note: "Cc1ccc2c(n1)N(CCn1cccn1)CCN(C(=O)CC1CC1)C2" gave Percent Effect of 3.09

Lab note: Cn1ccc(C(=O)NC2CCC23CCN(C(=O)N2CCCC2)CC3)c1 (stereo not drawn) gave Percent Effect of -9.67

Lab note: COC(=O)C(NC(=O)c1ccco1)c1cc(F)ccc1F (stereo not drawn) gave Percent Effect of 11.4

Lab note: COc1ccc(C(=O)N2CCCC(C)C2)cc1F (stereo not drawn) gave Percent Effect of -3.4

Lab note: "Cn1ccnc1COc1ccc(CO)cc1" gave Percent Effect of -8.74

Lab note: O=C(c1ccc(Cl)c(Cl)c1)N1CCCC(n2cncn2)C1 (stereo not drawn) gave Percent Effect of 0.213

Lab note: c1ccc(OCC2CC3(CCN(Cc4ccncc4)CC3)CO2)nc1 (stereo not drawn) gave Percent Effect of 5.09

Lab note: "COCc1ccccc1CNCc1c(C)nn(C)c1N(C)C" gave Percent Effect of 6.46

Lab note: CC(C)c1nccn1C1CCCN(C(=O)c2ccc3[nH]nnc3c2)C1 (stereo not drawn) gave Percent Effect of -4.53

Lab note: "O=C(c1ccnnc1)N1C[C@H]2CCC[C@@]2(COCC2CCOCC2)C1" gave Percent Effect of 1.16

Lab note: "Cc1cc(F)ccc1S(=O)(=O)NCc1cccc(C(=O)N2CCCC2)c1" gave Percent Effect of 0.935

Lab note: "Cc1ccc(C(=O)N2CCSCC2)cc1NC(=O)NCCO" gave Percent Effect of 18.5

Lab note: Cc1cc2n(n1)CC(CNC1CCN(Cc3ccccc3C)CC1)CN2 (stereo not drawn) gave Percent Effect of 13.7

Lab note: "O=C(Cc1cccc(Cl)c1)N[C@@H]1CCNC[C@H]1O" gave Percent Effect of 31.3

Lab note: "OC[C@H]1CC[C@]2(CC1)CN(Cc1ccccc1F)Cc1ccccc1O2" gave Percent Effect of 6.64

Lab note: "O=C(c1cnoc1)N1CCC[C@]2(C[C@@H](OCc3ccccn3)CO2)C1" gave Percent Effect of 23.6

Lab note: Cc1nn(C)c(C)c1CNC1CCOc2ccccc21 (stereo not drawn) gave Percent Effect of -3.92

Lab note: "Cc1noc(C)c1CCC(=O)N1CCN(CCn2cncn2)CC1" gave Percent Effect of 2.38

Lab note: CC(C)CCN1CCNC(=O)C1CC(=O)N1CCc2sccc2C1 (stereo not drawn) gave Percent Effect of 4.62

Lab note: CC(C)c1nc(C2CCCN2CC(=O)N2CCNC2=O)no1 (stereo not drawn) gave Percent Effect of -4.56

Lab note: CCn1ncc2c1C(COCC1CC1)CN(S(=O)(=O)N(C)C)C2 (stereo not drawn) gave Percent Effect of 10.2

Lab note: COc1cccc2c1OCC(CNC(=O)CSc1nc(N)n[nH]1)C2 (stereo not drawn) gave Percent Effect of 26.8

Lab note: Cc1nc(C2CCCN2C(=O)c2cc3c(s2)CCCC3)no1 (stereo not drawn) gave Percent Effect of 3.43

Lab note: "Cc1nc(C(C)C)sc1C(=O)NS(=O)(=O)c1ccc(C#N)cc1" gave Percent Effect of 18.3

Lab note: OC(COCc1ccccc1Cl)CN1CC(n2cccn2)C1 (stereo not drawn) gave Percent Effect of -0.349

Lab note: CNS(=O)(=O)c1ccc(CNC(=O)NCC2CCOC2)cc1 (stereo not drawn) gave Percent Effect of 2.49

Lab note: CCCN1CCN(C(=O)C(C)n2cc(Br)cn2)CC1 (stereo not drawn) gave Percent Effect of 7.33

Lab note: "CCCn1nc(C2CCNCC2)n(Cc2ccccc2)c1=O" gave Percent Effect of 17

Lab note: Cc1ccc(-c2nc(CN3CCOC(c4ccccc4)C3)cs2)o1 (stereo not drawn) gave Percent Effect of 6.73

Lab note: "CCNc1cc2c(nn1)CCN(C(=O)CC1CCCCC1)C2" gave Percent Effect of 9.47

Lab note: "O=S1(=O)CCN(Cc2cccnc2)[C@H]2CCN(c3ncccn3)CC[C@H]21" gave Percent Effect of 20.3

Lab note: COc1cc(C(=O)N(C2CC2)C2CC(=O)NC2=O)ccc1C (stereo not drawn) gave Percent Effect of 4.45

Lab note: "CO[C@H]1CN(Cc2cccc(C#N)c2)[C@@H]2COC[C@H]12" gave Percent Effect of 2.51

Lab note: Fc1ccc(-c2nnc(CN3CCOC(Cn4cncn4)C3)o2)cc1 (stereo not drawn) gave Percent Effect of -4.51

Lab note: "COCCCN1CCc2cncnc2C1" gave Percent Effect of 6.45

Lab note: Cc1ccc(S(=O)(=O)N2CSCC2C(=O)N(C)C2CC2)cc1Cl (stereo not drawn) gave Percent Effect of 10.8

Lab note: COCc1ccccc1C(=O)NCCCN1CCCC1C(=O)N(C)C (stereo not drawn) gave Percent Effect of 6.16

Lab note: CC1COCCN1Cc1nc(-c2cccs2)no1 (stereo not drawn) gave Percent Effect of -4.28

Lab note: "Cc1csc(N2CCCN(C(=O)C3(C#N)CCCCC3)CC2)n1" gave Percent Effect of -2.41

Lab note: O=S(=O)(CCN1CCOC(Cn2cccn2)C1)C(F)(F)F (stereo not drawn) gave Percent Effect of -1.22

Lab note: COCC(=O)N1Cc2cn(C)nc2C(COc2cccnc2)C1 (stereo not drawn) gave Percent Effect of -9.95

Lab note: "OCc1ccc(Cl)c(NCc2cccnc2)c1" gave Percent Effect of -4.73

Lab note: "CCOC(=O)c1sc(NC(=O)CN(C)S(C)(=O)=O)c(C#N)c1C" gave Percent Effect of -2.4

Lab note: "CC(C)C(=O)NCCNc1nccc(-c2cc(C(=O)O)ccn2)n1" gave Percent Effect of 15

Lab note: "Cc1cccc(-n2cc(C(=O)N3CCn4c(C)nnc4C3)nn2)c1" gave Percent Effect of 0.154

Lab note: "O=C(CCNc1ncccn1)NCCOc1ccc2c(c1)CCC2" gave Percent Effect of -5.56

Lab note: CC1=Nc2c(c(=O)[nH]n2C2CCOCC2)C(c2cccc(Br)c2)S1 (stereo not drawn) gave Percent Effect of -0.93

Lab note: O=C(NCc1cccnc1)C1CC(=O)N(CC2CC2)C1 (stereo not drawn) gave Percent Effect of -14.6
